Every entry's value here was drawn from patent US20240376151A1.

target or test system: PPIA (Homo sapiens, UniProt P62937)
Construct: Full length PPIA (residues 1-165) with an N-terminal 6×his-yBBR-TEV tag; 6×his-yBBR-TEV (N); made in house; host or cells: E. coli BL21 (DE3) CodonPlus RIPL
Sequence (P62937 whole entry, the tested form may be a part): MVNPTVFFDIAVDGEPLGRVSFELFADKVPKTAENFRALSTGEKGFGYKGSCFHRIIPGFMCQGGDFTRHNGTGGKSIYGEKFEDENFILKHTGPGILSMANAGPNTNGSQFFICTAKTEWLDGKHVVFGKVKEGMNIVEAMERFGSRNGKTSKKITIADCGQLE
measurement protocol: Phage Library Screening with NGS, PPIA
Assay type: binding
condition description: target concentration 1000, first column
readout label: phage screen counts, Target Concentration 1000
Give bare numbers.

sequence PHDCHVNAWYC , phage screen counts, Target Concentration 1000 observed: 21

Quick request: phage screen counts, Target Concentration 1000 for each listed item, please.
1. PDCHIYAFYCL
2. DPARADCHVAAYWCHHQ

Output line:
8
8

sequence DPARTDCHVAAYWCYHQ , phage screen counts, Target Concentration 1000 observed: 18

----------
target or test system: RNF31 PUB domain (Homo sapiens)
Construct: MBP-TEV (N, cleaved yes); made in house; host or cells: E. coli BL21 (DE3) pLysS
Sequence (Q96EP0 1-179): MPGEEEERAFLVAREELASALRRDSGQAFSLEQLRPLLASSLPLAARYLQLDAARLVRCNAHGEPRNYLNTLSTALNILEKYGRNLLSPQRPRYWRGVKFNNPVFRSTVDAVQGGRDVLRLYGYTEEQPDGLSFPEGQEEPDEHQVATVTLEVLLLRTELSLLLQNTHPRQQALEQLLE
measurement protocol: Phage Library Screening with NGS, RNF31 PUB domain
Type: binding
condition description: RNF31 PUB domain clusters C41-C45; target concentration 30
readout label: Phage library screen NGS readout, Target Concentration 30
Numbers only.

Consider the worked cases shown below.
sequence DPAQEECFEAAVFCSYY , Phage library screen NGS readout, Target Concentration 30 observed: 0

sequence DPAQDQCISAAVLCTYT , Phage library screen NGS readout, Target Concentration 30 observed: 0

sequence DPAADQCDIAAFVCSTY , Phage library screen NGS readout, Target Concentration 30 observed: 0

sequence DPAIRECMLAALVCSTY , Phage library screen NGS readout, Target Concentration 30 observed: 1

sequence DPAEEYCLEAAILCTYD , Phage library screen NGS readout, Target Concentration 30 observed: 0

Quick request: Phage library screen NGS readout, Target Concentration 30 for each listed item, please.
1. DPALRDCLDAAIMCTYT
2. DPASHMCLEAAVMCTYD
3. DPAYTLCSWAAMYCDSM

Output line:
1: 1; 2: 0; 3: 1

Quick request: Phage library screen NGS readout, Target Concentration 30 for each listed item, please.
1. DPAYDWCMYAAYNCVED
2. DPAIYQCSLAADICSTY
3. DPAFQFCVEAAVACSYY
4. DPAADDCEWAALYCSFH
5. DPAYEDCAWAALYCDMT

Output line:
1. 1
2. 3
3. 0
4. 0
5. 0

Quick request: Phage library screen NGS readout, Target Concentration 30 for each listed item, please.
1. DPAMQDCQLAALVCTTY
2. DPAWTDCDWAALYCEFQ
3. DPAWEHCLYAAYDCTHE
4. DPAQHECIYAAWDCDML

Output line:
1
0
1
1

----------
target or test system: RNF31 UBA domain (Homo sapiens, UniProt Q96EP0)
Construct: RNF31 UBA domain protein (residues 480-639) with N-terminal Thioredoxin-TEV-6×his-yBBr-3C tags; Thioredoxin (N, cleaved yes); made in house; host or cells: E. coli BL21 (DE3) pLysS
Sequence (Q96EP0 480-639): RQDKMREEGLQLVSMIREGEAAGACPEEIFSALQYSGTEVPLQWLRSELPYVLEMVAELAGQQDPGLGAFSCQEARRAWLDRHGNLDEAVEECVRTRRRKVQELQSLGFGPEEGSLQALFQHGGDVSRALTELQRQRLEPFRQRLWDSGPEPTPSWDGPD
measurement protocol: Phage Library Screening with NGS, RNF31 UBA domain
Type: binding
condition description: Target Concentration 100; no competitor
readout label: phage screen NGS read-out at Target Concentration 100

Quick request: phage screen NGS read-out at Target Concentration 100 for each listed item, please.
1. DPAMIQCLSAAVYCVHY
2. DPANEHCIAAAWWCQIL
3. DPADLICQLAAANCIYL
4. DPASMVCLSAAVYCAMH
5. DPASIHCAAAALWCDIL
6. DPAFSRCVYAAVACEDH

Output line:
1. 8
2. 0
3. 2
4. 38
5. 1
6. 3

Quick request: phage screen NGS read-out at Target Concentration 100 for each listed item, please.
1. DPALTHCTAAAYWCYVM
2. DPAREHCDSAAIFCYIL
3. DPAREHCDSAAAWCWVL
4. DPAQVHCRSAAAWCILM
5. DPAFSLCVYAALFCEQQ
6. DPAQRDCFSAAVYCSFL
7. DPAITHCTAAAMWCHLL

Output line:
1. 0
2. 1
3. 1
4. 0
5. 8
6. 40
7. 9

Quick request: phage screen NGS read-out at Target Concentration 100 for each listed item, please.
1. DPASIICMLAADNCLYE
2. DPAFSLCVYAAVECDHA
3. DPAFSTCIYAAVMCMDQ
4. DPAQNHCDSAAVFCYIL

Output line:
0
0
3
1
